Parameter Internalization %, MDA-MB-231, 0.25 µg/ml, 4 h: see the listing below.
Target: T1, human Trop-2 expressed on cell surface (human, UniProt P09758 27-323)
T1 sequence (looked up): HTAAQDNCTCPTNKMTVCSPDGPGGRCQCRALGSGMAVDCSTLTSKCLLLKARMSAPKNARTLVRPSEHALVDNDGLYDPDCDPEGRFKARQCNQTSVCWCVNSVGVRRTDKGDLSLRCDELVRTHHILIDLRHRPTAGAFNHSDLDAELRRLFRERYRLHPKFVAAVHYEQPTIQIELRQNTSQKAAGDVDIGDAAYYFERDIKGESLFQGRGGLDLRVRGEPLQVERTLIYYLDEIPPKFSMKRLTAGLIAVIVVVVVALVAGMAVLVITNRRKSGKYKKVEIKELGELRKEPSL
Test: cell-based or functional assay
Measurement label: Internalization %, MDA-MB-231, 0.25 µg/ml, 4 h

{"columns": ["Binder", "Observed"],
 "data": [
  ["5D4-1 (antibody, V domains shown) VH: QQLEESGGGLVKPEGSLTLTCKGSGFDFSGTYWMWWVRQAPGKGLEWIAPIYVGSGSSTYYASWAKGRFTISSTSSTAVTLQATSLTAADTATYFCARGATNNVFMNYFNLWGPGTLVTVSS VL: FEMTQTPSSVSEPVGGTVTIKCQASEDISSNLGWYQQKPGQPPKLLIYGASTLASGVPSRFKGSGSGTEFTLTISDLEPADAATYYCQTSYYIDDGVNGFGGGTEVVVK", "66%"],
  ["10A9-2 (antibody, V domains shown) VH: QSLEESGGDLVQPGASLTLTCKASGFDLNNYAMLWVRQAPGKGLEWIGSIYISGGTTYFASWATGRFAISKTSSTTVTLQMTSLTAADTATYFCARDDGTTSYYLNLWGPGTLVTVSS VL: YDMTQTPASVSAAVGGTVTIKCQASEDIYSLLAWYQQKPGQPPKLLIYGASNLESGVPSRFKGSGSGTEYTLTISDLEADDAATYYCQQAYTIGNIDNAFGGGTEVVVK", "55%"],
  ["5D4 (antibody, V domains shown, Rabbit-derived clone; LEM construct: VH + rabbit IgG CH1 + human IgG1 CH2-CH3) VH: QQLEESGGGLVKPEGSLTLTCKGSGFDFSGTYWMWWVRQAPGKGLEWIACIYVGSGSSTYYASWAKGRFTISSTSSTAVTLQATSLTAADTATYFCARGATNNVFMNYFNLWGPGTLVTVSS VL: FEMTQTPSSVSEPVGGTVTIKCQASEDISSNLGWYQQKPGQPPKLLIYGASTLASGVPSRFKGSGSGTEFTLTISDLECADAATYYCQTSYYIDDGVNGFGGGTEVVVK", "65%"],
  ["63H3 (antibody, V domains shown, Rabbit-derived clone; LEM construct: VH + rabbit IgG CH1 + human IgG1 CH2-CH3) VH: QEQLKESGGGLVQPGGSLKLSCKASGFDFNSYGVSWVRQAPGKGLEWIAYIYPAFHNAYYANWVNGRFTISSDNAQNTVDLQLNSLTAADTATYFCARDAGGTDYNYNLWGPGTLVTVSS VL: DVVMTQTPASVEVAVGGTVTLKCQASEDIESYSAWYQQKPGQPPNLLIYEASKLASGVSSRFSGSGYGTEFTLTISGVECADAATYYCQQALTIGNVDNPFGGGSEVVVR", "48%"],
  ["65D5 (antibody, V domains shown, Rabbit-derived clone; LEM construct: VH + rabbit IgG CH1 + human IgG1 CH2-CH3) VH: QEQLKESGGGLVQPGGSLKLSCKASGFDFNAYGVSWVRQAPGKGLEWIAYIYPAFHNTYYATWVNGRFTISSHNAQNTLYLQLNTLTAADTATYFCARDAGTTDYNFNLWGPGTLVTVSS VL: DIVMTQTPASVSEPVGGTVTIKCQASQSISSYLAWYQQKPGQPPKLLIYEATKLTSGVSSRFSGSGYGTEFTLTISGVECADAATYYCQQALTVGDVDNPFGGGSEVVVK", "51%"],
  ["62E3 (antibody, V domains shown, Rabbit-derived clone; LEM construct: VH + rabbit IgG CH1 + human IgG1 CH2-CH3) VH: QEQLKESGGGLVQPGGSLKLSCKASGFDFNEYGVSWVRQAPGKGLEWIAYIYPAFHNTYYATWVNGRFTISSHNAQNTLYLQLNTLTAADTATYFCARDAGTTDYNFNLWGPGTLVTVSS VL: DVVMTQTASPVSAAVGGTVTIKCQASEDIESYLAWYQQKPGQPPKLLIYEASKLASGVSSRFSGSGYGTEFTLTISGVECADAATYYCQQALTIGNVDNPFGGGSEVVVK", "46%"],
  ["66A1 (antibody, V domains shown, Rabbit-derived clone; LEM construct: VH + rabbit IgG CH1 + human IgG1 CH2-CH3) VH: QEQLKESGGGLVQPGGSLKLSCKASGFDFNNYGVSWVRQAPGKGLEWIAYIYPAFHNTYYASWVNGRFTISSHNAQNTLYLQLNSLTAADTATYFCARDAGGTDYAYNLWGPGTLVTVSS VL: DVVMTQTPASVEAAVGGTVSINCQASEDIESYLAWYQQKPGQPPKLLIYKASTLASGVSSRFKGSGSGKQFTLTISGVECADAATYYCQQVLTIGNVDNPFGGGSEVVVK", "51%"]
]}
